From: patent EP2676962A1

- TARGET UNDER TEST: cathepsin G (CatG) (Homo sapiens, UniProt P08311)
- Sequence (P08311 21-244): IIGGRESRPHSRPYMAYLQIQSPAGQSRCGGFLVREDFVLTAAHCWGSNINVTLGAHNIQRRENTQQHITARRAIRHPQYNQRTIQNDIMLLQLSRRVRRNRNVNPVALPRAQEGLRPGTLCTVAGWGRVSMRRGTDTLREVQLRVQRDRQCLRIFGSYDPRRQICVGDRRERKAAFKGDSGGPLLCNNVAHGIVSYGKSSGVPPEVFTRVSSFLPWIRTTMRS
- PROTOCOL NOTES: Inhibitory activity toward cathepsin G, fluorogenic substrate, microplate reader
- Type: biochemical
Assignment: determine reported IC50 for the given compounds.
The reply should be a number in nM, with the unit left off.

// fetch cathepsin G (CatG) (Homo sapiens, UniProt P08311) IC50 for CC(C)C(NC(=O)CCCCC1SCC2NC(=O)NC21)C(=O)N1CCCC1C(=O)NC(Cc1ccccc1)P(=O)(Oc1ccccc1)Oc1ccccc1 (stereo not drawn) 258

Now this one: COC(=O)c1ccc(OP(=O)(Oc2ccc(C(=O)OC)cc2)C(CC(C)C)NC(=O)C2CCCN2C(=O)C(NC(=O)CCCCC2SCC3NC(=O)NC32)C(C)C)cc1 (stereo not drawn) 720

Now this one: CSc1ccc(OP(=O)(Oc2ccc(SC)cc2)C(CC(C)C)NC(=O)C2CCCN2C(=O)CCCCC2SCC3NC(=O)NC32)cc1 (stereo not drawn) 1100
